run.description: AUC in Wistar rat plasma at 0.3 mg/kg, it administered as suspension
Format: ADME, organism-based
condition.summary: inhaled or intranasal
experimental.endpoint: AUC (ng·h/mL)

| test.smiles | experimental.endpoint | observed.result |
| --- | --- | --- |
| Cc1ccn2nc([C@H](C)Nc3ncnc(N)c3-c3ccc(O)c(F)c3)n(-c3ccccc3)c(=O)c12 | AUC | 148 |
| Cc1ccn2nc([C@H](C)Nc3ncnc4[nH]cc(-c5cc(NS(C)(=O)=O)cc6[nH]ccc56)c34)n(-c3ccccc3)c(=O)c12 | AUC | 96.5 |

====

Parameter: fraction unbound at 1 µM. Scope: all listed entries.
run.description: Protein binding in rat plasma at 1 uM by equilibrium dialysis
Type: ADME, cell-free
condition.summary: read-out: PPB (converted)
experimental.endpoint: fraction unbound at 1 µM

| test.smiles | observed.result |
| --- | --- |
| Cc1ccn2nc([C@H](C)Nc3ncnc4[nH]cc(-c5cc(NS(C)(=O)=O)cc6[nH]ccc56)c34)n(-c3ccccc3)c(=O)c12 | 0.011 |
| Cc1ccn2nc([C@H](C)Nc3ncnc(N)c3-c3ccc(O)c(F)c3)n(-c3ccccc3)c(=O)c12 | 0.054 |
